# test_system: 20S proteasome extracted from rat liver (T-L) (Rattus norvegicus, UniProt P40112+Q9JHW0)
# Construct: 20S proteasome extracted from rat liver; from tissue; host or cells: rat liver
# assay_protocol: inhibition of 20S proteasome, T-L activity (fluorescent peptide)
# Format: biochemical
# condition_notes: 2 μM; rat liver 20S proteasome, 37° C., 1 h; read-out: inhibition rates (%) T-L
# Experimental: 1 μg of 20S proteasome extracted from rat liver was incubated with a 100 μL solution containing various concentrations of the present compounds, 50 μM fluorescent peptides and 20 mM Tris-HCl at 37° C. for 1 h, respectively. […] 0.1% DMSO was used as a solvent control. Compared with the fluorescence of solvent control, an inhibition rate or IC50 value was calculated.
recorded_metric: inhibition at 2 µM (%)

{"chemical_smiles": "CC(C)C[C@H](NC(=O)[C@H](Cc1ccccc1)NC(=O)[C@H](Cc1ccccc1)NC(=O)Nc1cccc(OCc2ccccc2)c1)B(O)O", "inhibition at 2 µM / %": 47.2}

a. CC(C)C[C@H](NC(=O)CNC(=O)Nc1cccc(OCc2ccccc2)c1)B(O)O
b. CC(C)C[C@H](NC(=O)[C@H](Cc1ccccc1)NC(=O)NCc1cccc(Cl)c1Cl)B(O)O
// compare measured inhibition at 2 µM between a and b ; output the lower one Your answer should be the label attached to the chosen record.
a

====

# test_system: 20S proteasome extracted from rat liver (PGPH) (Rattus norvegicus, UniProt P28073+Q9JHW0)
# Construct: 20S proteasome extracted from rat liver; from tissue; host or cells: rat liver
# assay_protocol: inhibition of 20S proteasome, PGPH activity (fluorescent peptide)
# Format: biochemical
# condition_notes: 2 μM; rat liver 20S proteasome, 37° C., 1 h; read-out: inhibition rates (%) PGPH
recorded_metric: inhibition at 2 µM (%)

{"compound": "CC(C)C[C@H](NC(=O)N[C@@H](Cc1ccccc1)C(=O)N[C@@H](CC(C)C)C(=O)Nc1cnccn1)B(O)O", "recorded_metric": "inhibition at 2 µM", "measured_value": 73.2}
{"compound": "CC(C)C[C@H](NC(=O)N[C@@H](Cc1ccccc1)C(=O)Nc1cccc(OCc2ccccc2)c1)B(O)O", "recorded_metric": "inhibition at 2 µM", "measured_value": 2.19}
{"compound": "CC(C)C[C@H](NC(=O)CNC(=O)Nc1cc(Cl)ccc1Cl)B(O)O", "recorded_metric": "inhibition at 2 µM", "measured_value": 7.17}
{"compound": "CC(C)C[C@H](NC(=O)[C@H](Cc1ccccc1)NC(=O)Nc1cnccn1)B(O)O", "recorded_metric": "inhibition at 2 µM", "measured_value": 8.57}
{"compound": "CC(C)C[C@H](NC(=O)N[C@@H](Cc1ccccc1)C(=O)Nc1cccc(OCc2ccccc2)c1)B1OC2C[C@H]3C[C@H](C3(C)C)[C@@]2(C)O1 (stereo partly shown)", "recorded_metric": "inhibition at 2 µM", "measured_value": 3.15}

P. CC(C)C[C@H](NC(=O)CNC(=O)Nc1cccc(OCc2ccccc2)c1)B(O)O
Q. COc1ccc(NC(=O)[C@H](Cc2ccccc2)NC(=O)N[C@@H](CC(C)C)B2OC3C[C@H]4C[C@H](C4(C)C)[C@@]3(C)O2)cc1 (stereo partly shown)
// compare measured inhibition at 2 µM between P and Q ; output the lower one Your answer should be the label attached to the chosen record.
Q
(Q: 6.26%, P: 62.5%)

====

# test_system: 20S proteasome extracted from rat liver (T-L) (Rattus norvegicus, UniProt P40112+Q9JHW0)
# Construct: 20S proteasome extracted from rat liver; from tissue; host or cells: rat liver
# assay_protocol: inhibition of 20S proteasome, T-L activity (fluorescent peptide)
# Type: biochemical
# condition_notes: 0.2 μM; rat liver 20S proteasome, 37° C., 1 h; read-out: inhibition rates (%) T-L
recorded_metric: inhibition at 0.2 µM (%)

Here's what some known entries look like.
{"compound": "CC(C)C[C@H](NC(=O)[C@H](Cc1ccccc1)NC(=O)NCc1ccccc1)B(O)O [Example 14]", "test_system": "20S proteasome extracted from rat liver (T-L) (Rattus norvegicus, UniProt P40112+Q9JHW0)", "endpoint_unit": "%", "measured_value": 5.04}
{"compound": "COc1ccc(NC(=O)[C@H](Cc2ccccc2)NC(=O)N[C@@H](CC(C)C)B2OC3C[C@H]4C[C@H](C4(C)C)[C@@]3(C)O2)cc1 (some centres unmarked) [Example 9]", "test_system": "20S proteasome extracted from rat liver (T-L) (Rattus norvegicus, UniProt P40112+Q9JHW0)", "endpoint_unit": "%", "measured_value": 1.54}
{"compound": "CC(C)C[C@H](NC(=O)CNC(=O)Nc1cccc(OCc2ccccc2)c1)B(O)O [Example 21]", "test_system": "20S proteasome extracted from rat liver (T-L) (Rattus norvegicus, UniProt P40112+Q9JHW0)", "endpoint_unit": "%", "measured_value": 0.355}
{"compound": "COc1ccc(NC(=O)[C@H](Cc2ccccc2)NC(=O)N[C@@H](CC(C)C)B(O)O)cc1 [Example 8]", "test_system": "20S proteasome extracted from rat liver (T-L) (Rattus norvegicus, UniProt P40112+Q9JHW0)", "endpoint_unit": "%", "measured_value": -1.39}
{"compound": "CC(C)C[C@H](NC(=O)[C@H](Cc1ccccc1)NC(=O)[C@H](Cc1ccccc1)NC(=O)Nc1cccc(OCc2ccccc2)c1)B(O)O [Example 23]", "test_system": "20S proteasome extracted from rat liver (T-L) (Rattus norvegicus, UniProt P40112+Q9JHW0)", "endpoint_unit": "%", "measured_value": -0.748}
{"compound": "CC(C)C[C@H](NC(=O)N[C@@H](Cc1ccccc1)C(=O)NCC1CCCO1)B(O)O (some centres unmarked) [Example 3]", "test_system": "20S proteasome extracted from rat liver (T-L) (Rattus norvegicus, UniProt P40112+Q9JHW0)", "endpoint_unit": "%", "measured_value": 16.9}

I. CC(C)C[C@H](NC(=O)N[C@@H](CC(C)C)C(=O)N[C@@H](CC(C)C)C(=O)Nc1cnccn1)B(O)O [Example 11]
II. CC(C)C[C@H](NC(=O)N[C@@H](Cc1ccccc1)C(=O)Nc1cnccn1)B1OC2C[C@H]3C[C@H](C3(C)C)[C@@]2(C)O1 (some centres unmarked) [Example 7]
Between the two listed entries I and II , which has its inhibition at 0.2 µM at the higher number? Your answer should be the label attached to the chosen record.
I
